Measured values drawn from paper PMC9511441 for this set.

tested on: SARS-CoV-2; test: microbe, parasite or virus in culture; assay type: cell-based; conditions: Severe acute respiratory syndrome coronavirus 2, Vero C1008, 72 h; Vero E6 cells, three days, XTT; read-out: EC50, CPE reduction, SARS-CoV-2 in Vero E6 cells
Experimental endpoint: EC50

{"Smiles notation": "OCCCC(F)(F)C(F)(F)C(F)(F)C(F)(F)C(F)(F)C(F)(F)C(F)(F)C(F)(F)F", "EC50": "> 100 µM"}
{"Smiles notation": "N=C(N)NCCSCCCOc1cc(C(=O)OCc2ccccc2)cc(OCCCSCCNC(=N)N)c1OCCCSCCNC(=N)N", "EC50": "> 100 µM"}

Alright, here's another molecule for you.
Field EC50 (entry OCCCC(F)(F)C(F)(F)C(F)(F)C(F)(F)C(F)(F)C(F)(F)F ) reads > 100 µM

====

Attribute: pIC50
biological target: human recombinant cathepsin L (Homo sapiens); construct: made in house; host or cells: Escherichia coli; assay: biochemical; format: biochemical; details: read-out: Cathepsin L IC50; pH 5.5, Z-Phe-Arg-AMC substrate
Sequence (P07711 114-333): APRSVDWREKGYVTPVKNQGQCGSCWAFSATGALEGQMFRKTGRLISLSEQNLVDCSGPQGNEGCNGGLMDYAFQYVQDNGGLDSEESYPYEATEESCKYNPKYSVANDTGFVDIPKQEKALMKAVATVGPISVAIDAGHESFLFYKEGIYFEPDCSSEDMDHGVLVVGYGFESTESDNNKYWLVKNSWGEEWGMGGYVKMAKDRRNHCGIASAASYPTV
Scale: negative log10 of molar concentration, which is what pIC50 denotes.

Example entries and their recorded answers appear below.
{"Compound": "CCCCCCCCOC1C(OC)OC(COCCOCCOCCOCCOCc2cn(C3C(=O)NC4Cc5ccc(c(Cl)c5)Oc5cc6cc(c5O)Oc5ccc(cc5Cl)C(OC5OC(CO)C(O)C(O)C5NC(C)=O)C5NC(=O)C(NC(=O)C6NC(=O)C(NC4=O)c4cc(O)cc(c4)Oc4cc3ccc4O)c3ccc(O)c(c3)-c3c(O)cc(O)cc3C(C(=O)O)NC5=O)nn2)C(O)C1OCCCCCCCC (stereo not shown) [Compound 1]", "pIC50": 4.31}
{"Compound": "CC(=O)N[C@H]1[C@H](O[C@@H]2c3ccc(c(Cl)c3)Oc3cc4cc(c3O)Oc3ccc(cc3Cl)C[C@H]3NC(=O)[C@H](NC(=O)c5cc(OCCCSCCNC(=N)N)c(OCCCSCCNC(=N)N)c(OCCCSCCNC(=N)N)c5)c5ccc(O)c(c5)Oc5cc(O)cc(c5)[C@H](NC3=O)C(=O)N[C@H]4C(=O)N[C@H]3C(=O)N[C@@H]2C(=O)N[C@H](C(=O)O)c2cc(O)cc(O)c2-c2cc3ccc2O)O[C@H](CO)[C@@H](O)[C@@H]1O [Compound 7]", "pIC50": 5.35}

Alright, here's another compound for you.
Field pIC50 (entry CC(=O)N[C@H]1[C@H](O[C@@H]2c3ccc(c(Cl)c3)Oc3cc4cc(c3O)Oc3ccc(cc3Cl)C[C@H]3NC(=O)[C@H](n5cc(COCCOCCCC(F)(F)C(F)(F)C(F)(F)C(F)(F)F)nn5)c5ccc(O)c(c5)Oc5cc(O)cc(c5)[C@H](NC3=O)C(=O)N[C@H]4C(=O)N[C@H]3C(=O)N[C@@H]2C(=O)N[C@H](C(=O)O)c2cc(O)cc(O)c2-c2cc3ccc2O)O[C@H](CO)[C@@H](O)[C@@H]1O [Compound 2] ) reads 4.01
